Reported pIC50 on 3-oxo-5-alpha-steroid 4-dehydrogenase 2 (Rattus norvegicus) for assorted compounds, compiled from publications.
Sequence (P31214 whole entry): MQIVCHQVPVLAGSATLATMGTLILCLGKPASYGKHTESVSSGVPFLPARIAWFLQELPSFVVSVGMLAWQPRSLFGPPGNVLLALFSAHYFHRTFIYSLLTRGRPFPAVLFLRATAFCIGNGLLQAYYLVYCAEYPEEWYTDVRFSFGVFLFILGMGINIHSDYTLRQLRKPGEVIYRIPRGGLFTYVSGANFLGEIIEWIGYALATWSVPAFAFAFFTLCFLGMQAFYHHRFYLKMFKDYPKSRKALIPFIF
Please express pIC50 as -log10 of the molar concentration.

compound	readout number
O=C(O)c1ccc(C=C2CCN(C(=O)C34CC5CC(CC(C5)C3)C4)CC2)c(F)c1	5.46
C[C@]12CC[C@H](O)CC1=CC[C@@H]1[C@@H]2CC[C@]2(C)C(n3cnc4ccccc43)=C(C=O)C[C@@H]12	6.90

Query block: Provide measured pIC50 value, entry: CC(C)(C)N(C(=O)C1CSCN1C(=O)C1CCC(=O)N1)C(=O)[C@H]1CC[C@H]2[C@@H]3CC[C@H]4NC(=O)C=C[C@]4(C)[C@H]3CC[C@]12C (stereo partly drawn)
Result block: 7.06
